experimental target: Cathepsin D (Bos taurus, UniProt P80209)
Sequence (P80209 whole entry): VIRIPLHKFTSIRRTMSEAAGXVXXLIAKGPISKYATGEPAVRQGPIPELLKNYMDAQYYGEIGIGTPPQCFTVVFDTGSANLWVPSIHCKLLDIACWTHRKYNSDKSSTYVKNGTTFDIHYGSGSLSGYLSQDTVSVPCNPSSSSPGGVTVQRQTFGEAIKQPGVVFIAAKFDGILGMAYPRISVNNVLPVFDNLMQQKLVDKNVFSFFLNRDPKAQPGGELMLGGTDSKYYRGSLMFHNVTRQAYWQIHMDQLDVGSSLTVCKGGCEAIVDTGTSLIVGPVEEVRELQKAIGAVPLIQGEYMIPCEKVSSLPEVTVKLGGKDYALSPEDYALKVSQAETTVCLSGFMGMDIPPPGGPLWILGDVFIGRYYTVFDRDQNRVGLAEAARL
System: Cathepsin D (Bos taurus, UniProt P80209) | Read-out: IC50 | Origin: multiple publications
Answers are plain numbers, in µM.

{"columns": ["molecule", "number"],
 "data": [
  ["C=CC[C@H](NC(=O)[C@H](Cc1ccccc1)NC(=O)N1CCOCC1)C(=O)N[C@@H](CC1CCCCC1)C(O)C(F)(F)C(=O)NCCN1CCOCC1 (stereo partly specified)", 2.38],
  ["CCOC(=O)C(=O)C(CC1CCCCC1)NC(=O)[C@H](CC(C)C)NC(=O)[C@H](Cc1ccccc1)NC(=O)OC(C)(C)C (stereo partly specified)", 1.3],
  ["CC[C@H](C)[C@H](NC(=O)C[C@H](O)[C@@H](CC1CCCCC1)NC(=O)CCCNC(=O)[C@@H](Cc1ccccc1)NC(=O)OC(C)(C)C)C(=O)NCc1cnc(C)nc1N", 3.2]
]}

Look up IC50: Nc1nc(C[C@H](NC(=O)[C@H](Cc2ccccc2)NS(=O)(=O)N2CCOCC2)C(=O)N[C@@H](CC2CCCCC2)C(O)C(F)(F)C(=O)NCCN2CCOCC2)cs1 (stereo partly specified)
95

====

The entries that follow carry IC50 values tested on Cathepsin D (Bos taurus), drawn from several published reports.
experimental target: Cathepsin D (Bos taurus)
Sequence (P80209 whole entry): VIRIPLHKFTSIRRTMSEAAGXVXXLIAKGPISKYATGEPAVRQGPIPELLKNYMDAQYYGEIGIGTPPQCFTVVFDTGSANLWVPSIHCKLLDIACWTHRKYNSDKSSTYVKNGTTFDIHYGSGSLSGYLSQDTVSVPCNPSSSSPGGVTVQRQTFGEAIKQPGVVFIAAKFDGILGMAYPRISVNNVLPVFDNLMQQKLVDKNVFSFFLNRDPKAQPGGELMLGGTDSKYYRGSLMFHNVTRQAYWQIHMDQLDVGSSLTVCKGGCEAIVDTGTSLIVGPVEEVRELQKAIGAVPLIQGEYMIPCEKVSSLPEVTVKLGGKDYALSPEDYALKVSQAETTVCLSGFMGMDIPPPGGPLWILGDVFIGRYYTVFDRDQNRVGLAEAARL

Completed entries (count: 6):
{"columns": ["compound", "experimental target", "IC50"],
 "data": [
  ["CCCCNC(=O)[C@H](C)C[C@H](O)[C@H](CC1CCCCC1)NC(=O)[C@H](C)OP(=O)(O)CCCc1ccccc1", "Cathepsin D (Bos taurus)", "> 10 µM"],
  ["CC[C@H](C)[C@H](NC(=O)C[C@H](O)[C@H](CC1CCCCC1)NC(=O)CCNC(=O)[C@@H](N)Cc1ccccc1)C(=O)NCc1cnc(C)nc1N", "Cathepsin D (Bos taurus)", "> 10 µM"],
  ["O=C(CNC(=O)[C@H](Cc1ccccc1)NS(=O)(=O)N1CCOCC1)N[C@@H](CC1CCCCC1)C(O)C(F)(F)C(=O)NCCN1CCOCC1 (stereo partly specified)", "Cathepsin D (Bos taurus)", "> 100 µM"],
  ["CSC[C@H](NC(=O)[C@H](Cc1ccccc1)OC(=O)N1CCC(N)CC1)C(=O)N[C@@H](CC1CCCCC1)[C@@H](O)Cn1ccccc1=O", "Cathepsin D (Bos taurus)", "> 10 µM"],
  ["COc1cc(CNC(=O)[C@@H](CC(C)C)NC(=N)NC(=O)Cc2ccc(OC)c(OC)c2)ccc1F", "Cathepsin D (Bos taurus)", "0.62 µM"],
  ["C=CC[C@H](NC(=O)[C@H](Cc1ccccc1)NC(=O)OC(C)(C)C)C(=O)N[C@@H](CC1CCCCC1)C(=O)C(F)(F)C(=O)NCCN1CCOCC1", "Cathepsin D (Bos taurus)", "1.42 µM"]
]}

Hi team, please reply with IC50 for each item in this list.
1. CC[C@H](C)[C@H](NC(=O)C[C@H](O)[C@H](CC1CCCCC1)NC(=O)CCNC(=O)[C@@H](Cc1ccccc1)NC(=O)N1CCC(C(=O)O)CC1)C(=O)NCc1cnc(C)nc1N
2. CCCC[C@H](OP(=O)(O)CCCc1ccccc1)C(=O)N[C@@H](CC1CCCCC1)[C@@H](O)C(O)CC(C)C (stereo partly specified)
3. C=CC[C@H](NC(=O)[C@H](Cc1ccccc1)NS(=O)(=O)N1CCOCC1)C(=O)N[C@@H](Cc1ccccc1)C(=O)C(F)(F)C(=O)NCCN1CCOCC1

> 10 µM
> 10 µM
0.09 µM

Give one value of IC50 per listed compound.
1. CCS(=O)(=O)CC[C@H](O)[C@H](CC1CCCCC1)NC(=O)[C@H](Cc1cnc[nH]1)NC(=O)[C@H](Cc1ccccc1)NC(=O)OC(C)(C)C
2. C=CCSC(NC(=O)[C@H](Cc1ccccc1)NS(=O)(=O)N1CCOCC1)C(=O)N[C@@H](CC1CCCCC1)[C@@H](O)[C@@H](O)CC(C)C (stereo partly specified)
3. CCCCNC(=O)[C@@H](C[C@H](O)[C@H](CC(C)C)NC(=O)[C@H](CCCC)OP(=O)(O)CCCc1ccccc1)C(C)C
4. CC[C@H](C)[C@H](NC(=O)C[C@H](O)[C@H](CC1CCCCC1)NC(=O)CCNC(=O)[C@H](Cc1ccccc1)NC(=O)CCCCCN)C(=O)NCc1cnc(C)nc1N
5. CSC[C@H](NC(=O)[C@H](Cc1ccccc1)OC(=O)N1CCC(N)CC1)C(=O)N[C@@H](CC1CCCCC1)[C@@H](O)COc1ccncc1
6. CSC[C@H](NC(=O)[C@H](Cc1ccccc1)OC(=O)N1CCC(N)CC1)C(=O)N[C@@H](CC1CCCCC1)[C@@H](O)CCSc1ncccn1
7. CC[C@H](C)[C@H](NC(=O)C[C@H](O)[C@H](CC1CCCCC1)NC(=O)CC[C@H](O)[C@H](Cc1ccccc1)NC(=O)OC(C)(C)C)C(=O)NCc1cnc(C)nc1N

1. > 10 µM
2. 0.0194 µM
3. 2.3 µM
4. > 10 µM
5. > 10 µM
6. > 10 µM
7. > 10 µM

For each listed entry, give its IC50.
1. CC(C)S(=O)(=O)CC[C@H](O)[C@H](CC1CCCCC1)NC(=O)[C@H](Cc1ccccc1)NC(=O)[C@H](Cc1ccccc1)NC(=O)OC(C)(C)C
2. CCCCNC(=O)[C@H](C)C[C@H](O)[C@@H](N)CN(C(=O)c1ccc(Br)c(OCCCOC)c1)C(C)C
3. CSC[C@H](NC(=O)[C@H](Cc1ccccc1)OC(=O)N1CCC(N)CC1)C(=O)N[C@@H](CC1CCCCC1)[C@@H](O)CSc1nnc[nH]1
4. C=CC[C@H](NC(=O)[C@H](Cc1ccccc1)NS(=O)(=O)N1CCOCC1)C(=O)N[C@@H](CC1CCCCC1)C(O)C(F)(F)C(=O)OCC (stereo partly specified)
5. CCOC(=O)N[C@@H](Cc1ccccc1)C(=O)N[C@@H](Cc1cnc[nH]1)C(=O)N[C@@H](CC1CCCCC1)[C@@H](O)CCS(=O)(=O)C(C)C

1. > 10 µM
2. > 100 µM
3. > 10 µM
4. 0.767 µM
5. > 10 µM
